experiment: forskolin-driven CRE-LacZ activity in PC12 – cell-based, CRE-LacZ reporter, forskolin-stimulated, primary screen (AID 1146); conditions: luminescence, 4.5 h, higher = more signal, called active from +8 up or from −8 down;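 further: PC12 cells with 6xCRE LacZ reporter stimulated by forskolin 10 µM; beta-galactosidase reporter signal reflecting CREB driven transcription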
# z-score values compiled below
endpoint: z-score

compound: COCCOC(=O)N1C(=O)[C@@]2(c3ccccc31)[C@H](C(=O)NC[C@H](O)c1ccccc1)[C@H]1C(=O)O[C@H](c3ccccc3)[C@H](c3ccccc3)N1[C@@H]2c1ccc(O)cc1
endpoint: z-score
reported-measurement: 2.34
//
compound: COc1ccc(C#Cc2ccc3c(c2)[C@]2(C(=O)N3)[C@H](c3ccc(O)cc3)N3[C@H](c4ccccc4)[C@H](c4ccccc4)OC(=O)[C@H]3[C@@H]2C(=O)Nc2nc3ccccc3s2)cc1
endpoint: z-score
reported-measurement: -0.513
//
compound: C=CCC(OC(C)=O)[C@@H]1[C@@H](N(Cc2ccc(-c3cccc(C(F)(F)F)c3)o2)C(=O)Cc2ccc(OC)cc2)c2cc(OCCCO)ccc2N1C(=O)c1ccc(-c2ccccc2)cc1 (stereo partly drawn)
endpoint: z-score
reported-measurement: 0.393
//
compound: COC(=O)[C@]1(CCS(=O)(=O)c2ccccc2)N=C(c2ccc(OCCCO)cc2)O[C@@H]1c1ccccc1N=[N+]=[N-]
endpoint: z-score
reported-measurement: -0.889
//
compound: COCCOC(=O)N1C(=O)[C@@]2(c3cc(C#CCC(C(=O)OC)C(=O)OC)ccc31)[C@H](c1ccc(OCCO)cc1)N1[C@H](c3ccccc3)[C@H](c3ccccc3)OC(=O)[C@H]1[C@@H]2C(=O)N1CCc2cc(OC)c(OC)cc2C1
endpoint: z-score
reported-measurement: 0.936
//
compound: Cc1ccc(S[C@]2(C(=O)NCc3ccccc3)CC(=O)N(C3CCCCC3)[C@@H]2c2ccc(CO)cc2I)cc1
endpoint: z-score
reported-measurement: 1.01
//
compound: CC1CC/C=C\[C@H]2OC34C=CCN(C(C)(C)C)C(=O)[C@H]3N(CCCCCO)C(=O)[C@@H]4C2C(=O)O1 (stereo partly drawn)
endpoint: z-score
reported-measurement: -0.928
//
compound: COc1cc(NN2C(C(O)c3ccc(N(C)C)cc3)C=CC3C(=O)N(c4ccccc4)C(=O)C32)cc(OC)c1OC (stereo not drawn)
endpoint: z-score
reported-measurement: -0.259

The values you see were collected from PubChem BioAssay.
